Origin of values: patent US20240343810A1

Biological target: T1, Biotinylated human ICOS protein (human, UniProt Q9Y6W8 21-140, limits assumed, biotinylated (sites not given))
T1 construct: Captured on the NLC chip in the avidity SPR
T1 sequence: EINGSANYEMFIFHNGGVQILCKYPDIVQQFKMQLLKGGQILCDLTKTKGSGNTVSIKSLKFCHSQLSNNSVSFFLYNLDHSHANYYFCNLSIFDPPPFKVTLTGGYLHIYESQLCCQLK
Assay: SPR ProteOn avidity format, biotinylated human ICOS on NLC chip, antibody analyte; apparent KD from equilibrium, 25 C
Outcome measure: pKd
Bear in mind: pKd is minus log10 of a mol/L concentration; give just that figure.

Before answering, review these 3 worked examples.
STIM001_457_LAGA (bispecific antibody, V domains shown, not shown: a dimerising Fc or GST, LAGA variant of STIM001_457) VH: QVQVVQSGAEVKKPGASVKVSCKASGYTFSTFGITWVRQAPGQGLEWMGWISAYNGDTNYAQNLQGRVIMTTDTSTSTAYMELRSLRSDDTAVYYCARSSGHYYYYGMDVWGQGTTVTVSS VL: DIVMTQSPLSLPVTPGEPASISCRSSQSLLHSNEYNYLDWYLQKPGQSPQLLIFLGSNRASGVPDRFSGSGSGTDFTLKITRVEAEDVGIYYCMQSLQTPLTFGGGTKVEIK; 7.97
STIM003_289_LAGA (bispecific antibody, V domains shown, not shown: a dimerising Fc or GST, LAGA variant of STIM003_289) VH: EVQLVESGGGVVRPGGSLRLSCVASGVTFDDYGMSWVRQAPGKGLEWVSGINWNGGDTDYSDSVKGRFTISRDNAKNSLYLQMNSLRAEDTALYYCARDFYGSGSYYHVPFDYWGQGILVTVSS VL: EIVLTQSPGTLSLSPGERATLSCRASQSVSRSYLAWYQQKRGQAPRLLIYGASSRATGIPDRFSGDGSGTDFTLSISRLEPEDFAVYYCHQYDMSPFTFGPGTKVDIK; 9.22
STIM001_289_LAGA (bispecific antibody, V domains shown, not shown: a dimerising Fc or GST) VH: QVQVVQSGAEVKKPGASVKVSCKASGYTFSTFGITWVRQAPGQGLEWMGWISAYNGDTNYAQNLQGRVIMTTDTSTSTAYMELRSLRSDDTAVYYCARSSGHYYYYGMDVWGQGTTVTVSS VL: DIVMTQSPLSLPVTPGEPASISCRSSQSLLHSNEYNYLDWYLQKPGQSPQLLIFLGSNRASGVPDRFSGSGSGTDFTLKITRVEAEDVGIYYCMQSLQTPLTFGGGTKVEIK; 7.60

Can you share its pKd? I mean this binder: STIM003_457_LAGA (bispecific antibody, V domains shown, not shown: a dimerising Fc or GST, LAGA variant of STIM003_457) VH: EVQLVESGGGVVRPGGSLRLSCVASGVTFDDYGMSWVRQAPGKGLEWVSGINWNGGDTDYSDSVKGRFTISRDNAKNSLYLQMNSLRAEDTALYYCARDFYGSGSYYHVPFDYWGQGILVTVSS VL: EIVLTQSPGTLSLSPGERATLSCRASQSVSRSYLAWYQQKRGQAPRLLIYGASSRATGIPDRFSGDGSGTDFTLSISRLEPEDFAVYYCHQYDMSPFTFGPGTKVDIK
9.10
